Entry source: ChEMBL document CHEMBL5393453

- Test system: HeLa
- TEST DESCRIPTION: Induction of mitophagy in human HeLa Mito-Keima/YFP-Parkin cells treated with FCCP/oligomycin measured by FACS analysis
- Assay type: functional, cell-based
pEC50: −log10 of the molar value.
MEASURED PROPERTY: pEC50

a = COC1CN([C@@H]2CCc3ccccc3[C@H]2Nc2ncnc3[nH]c(C(F)(F)F)cc23)C1
b = FC(F)(F)c1cc2c(N[C@H]3c4ccccc4CC[C@@H]3N3CC4(COC4)C3)ncnc2[nH]1
Q. Of a and b , whose reported pEC50 is numerically smaller? In your reply, give the label of the chosen option.
A. a
(a: 4.54, b: 6.52)
